# assayInfo: Selectivity index, ratio of TC50 for human HepG2.2.15 cells to IC50 for Hepatitis B virus subtype adw2 infected in human HuH7 cells assessed as inhibition of viral DNA replication
For each entry below, report its selectivity ratio value.

Entry under test: "C=C1C[C@@]23CC[C@H]4[C@@](C)(CCC[C@@]4(C)N=C=O)[C@@H]2CC[C@]1(O)C3" . Its selectivity ratio was 11.2

For "C=C1C[C@@]23CC[C@H]4[C@@](C)(CCC[C@@]4(C)NC(=O)Nc4ccc(Cl)cc4)[C@@H]2CC[C@]1(O)C3" the molecule record lists selectivity ratio as 6.6

Note to self: selectivity ratio recorded for "C=C1C[C@@]23CC[C@H]4[C@@](C)(CCC[C@@]4(C)C(=O)O)[C@@H]2CC[C@]1(O)C3" was 23.8

Sample "Nc1ccn([C@@H]2CS[C@H](CO)O2)c(=O)n1" ; selectivity ratio observed: 22

Input "C=C1C[C@@]23CC[C@H]4[C@@](C)(CCC[C@@]4(C)NC(=O)NCCCC)[C@@H]2CC[C@]1(O)C3" . Output selectivity ratio: 57.7

Recorded selectivity ratio (molecule "C=C1C[C@@]23CC[C@H]4[C@@](C)(CCC[C@@]4(C)NC(=O)c4ccc(OCC)cc4)[C@@H]2CC[C@]1(O)C3" ): 14.1

Documented selectivity ratio of "C=C1C[C@@]23CC[C@H]4[C@@](C)(CCC[C@@]4(C)N)[C@@H]2CC[C@]1(O)C3" : 4.7

Kindly note the recorded selectivity ratio for "C=C1C[C@@]23CC[C@H]4[C@@](C)(CCC[C@@]4(C)NC(=O)c4ccc(I)cc4)[C@@H]2CC[C@]1(O)C3" , which is 18.8

The molecule listed as "C=C1C[C@@]23CC[C@H]4[C@@](C)(CCC[C@@]4(C)NC(=O)c4ccc(C#N)cc4)[C@@H]2CC[C@]1(O)C3" shows selectivity ratio equal to 13.9
